Tested on: PPARg:RXRa 90nM:30nM, anti-RXR (NR concentration 90 nM, RXRa partner concentration 30 nM)
measurement-notes: PBM binding z-score (relative to random genomic background probes); higher = stronger binding; sequences stand for … in GC…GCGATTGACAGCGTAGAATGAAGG
metric-name: PBM binding z-score
Answer with a number only.

# count of solved cases: 5
| residues | metric-name | reported-value |
| --- | --- | --- |
| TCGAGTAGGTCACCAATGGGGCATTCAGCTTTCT | PBM binding z-score | 4.74 |
| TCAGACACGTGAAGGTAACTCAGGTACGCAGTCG | PBM binding z-score | 2.58 |
| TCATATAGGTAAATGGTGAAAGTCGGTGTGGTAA | PBM binding z-score | 3.96 |
| TCGAGTAGGTTAGTCGGGGCAATCAGCCAACATA | PBM binding z-score | 0.797 |
| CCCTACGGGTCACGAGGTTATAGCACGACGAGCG | PBM binding z-score | 4.88 |

Fill in: PBM binding z-score of "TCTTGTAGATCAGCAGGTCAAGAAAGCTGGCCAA" is ___
2.59

Fill in: PBM binding z-score of "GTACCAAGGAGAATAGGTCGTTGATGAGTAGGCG" is ___
-0.0411

Fill in: PBM binding z-score of "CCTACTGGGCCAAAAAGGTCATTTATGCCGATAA" is ___
2.79

Fill in: PBM binding z-score of "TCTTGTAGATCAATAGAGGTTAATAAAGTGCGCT" is ___
2.15

Fill in: PBM binding z-score of "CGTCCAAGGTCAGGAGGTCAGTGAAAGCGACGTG" is ___
4.06

Fill in: PBM binding z-score of "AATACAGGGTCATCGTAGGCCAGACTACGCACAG" is ___
4.83

* * *

Tested on: THRa:RXRa (NR concentration 90 nM, RXRa partner concentration 90 nM)
measurement-notes: PBM binding z-score (relative to random genomic background probes); higher = stronger binding; sequences stand for … in GC…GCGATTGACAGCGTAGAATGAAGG
Reported PBM binding z-score by item:
Answer with a number only.

# count of solved cases: 5
| residues | PBM binding z-score |
| --- | --- |
| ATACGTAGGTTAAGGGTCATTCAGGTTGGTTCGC | 3.72 |
| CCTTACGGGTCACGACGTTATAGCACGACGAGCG | 2.99 |
| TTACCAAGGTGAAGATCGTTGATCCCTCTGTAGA | 1.58 |
| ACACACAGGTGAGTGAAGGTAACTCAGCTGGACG | 1.57 |
| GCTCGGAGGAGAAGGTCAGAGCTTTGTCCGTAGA | 1.15 |

Item: "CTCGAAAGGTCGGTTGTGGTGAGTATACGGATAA" Test system: THRa:RXRa (NR concentration 90 nM, RXRa partner concentration 90 nM) Read-out: PBM binding z-score Value: ?
2.66

Item: "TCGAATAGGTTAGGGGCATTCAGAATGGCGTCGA" Test system: THRa:RXRa (NR concentration 90 nM, RXRa partner concentration 90 nM) Read-out: PBM binding z-score Value: ?
0.948

Item: "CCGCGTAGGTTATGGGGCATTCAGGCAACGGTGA" Test system: THRa:RXRa (NR concentration 90 nM, RXRa partner concentration 90 nM) Read-out: PBM binding z-score Value: ?
0.529

Item: "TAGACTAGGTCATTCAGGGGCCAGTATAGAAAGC" Test system: THRa:RXRa (NR concentration 90 nM, RXRa partner concentration 90 nM) Read-out: PBM binding z-score Value: ?
3.29

Item: "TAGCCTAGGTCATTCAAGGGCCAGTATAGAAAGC" Test system: THRa:RXRa (NR concentration 90 nM, RXRa partner concentration 90 nM) Read-out: PBM binding z-score Value: ?
4.3

Item: "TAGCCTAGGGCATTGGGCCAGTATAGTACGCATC" Test system: THRa:RXRa (NR concentration 90 nM, RXRa partner concentration 90 nM) Read-out: PBM binding z-score Value: ?
-0.328
